- assay overview: small-molecule binders of probe aNOTCH2, primary screen, biochemical, small-molecule microarray, 635/667 nm fluorescence (AID 1121);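 note: score merges feature fluorescence read at 667 nm with its signal to noise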
- assay context: higher = more signal
Each entry below carries its reported composite z-score.
Just the number, please.

molecule	composite z-score
CC(=O)NCCCC[C@@H]1NC(=O)[C@H]2C[C@@H](C(=O)O)[C@@H](c3cccc(OCCO)c3)N2C1=O	-0.0644
CCCCN1CC=CC23O[C@@H]4C=CCCOC(=O)C4[C@H]2C(=O)N(CCO)[C@@H]3C1=O (stereo partly drawn)	-0.109
CC[C@@H](O[Si](C#C[Si](C(C)C)(C(C)C)C(C)C)(C(C)C)C(C)C)c1cn([C@H](C)c2ccccc2)nn1	-0.171
CC(C)C[C@H]1NC(=O)CNC(=O)[C@@]23C(=O)N[C@@H](Cc4ccccc4)C2[C@H](C)[C@@]2(C)O[C@H]2C3/C=C/C/C=C\CNC1=O (stereo partly drawn)	-0.133
CC(C)c1ccc(NN2C(C(O)C3=C[C@H]4C[C@@H](C3)C4(C)C)C=CC3C(=O)N(c4ccccc4)C(=O)C32)cc1 (stereo partly drawn)	0.248
COC(=O)C1(CC(C)C)C=C2C(=C(C)C(=O)C2C)CN1 (stereo not drawn)	0.175

Please supply the value of reported composite z-score for the item C=C(COC)/C(=C/C[C@@H](OC(C)=O)c1cccc(OCCO)c1)c1cnc2ccccc2c1 -0.084

# return recorded composite z-score for entry [N-]=[N+]=NCc1ccccc1[C@H]1OC(c2ccc(OCCCO)cc2)=N[C@@]1(CCS(=O)(=O)c1ccccc1)C(=O)NCCN1CCOCC1 0.163
